# System: OVCAR-4 ovarian
# ASSAY NOTES: NCI-60 one-dose screen, 48 h (100 = growth as untreated, 0 = no growth, -100 = all killed)
# MEASUREMENT CONDITIONS: 10 µM unless noted
This is part of a sample that, as a whole, favours compounds with a hit. Of some 83,000 tested, about 20% had one in any assay.
The following molecules are listed with their measured growth values.

MOLECULE | growth [%]
CCC(CC)CC1(C)CC2(C)CCOC2OO1 (configuration not stated) | 95.4
C=CC[n+]1ccc(-c2cc[n+](CC=C)cc2)cc1 | 37.6
C[C@]12CC[C@H]3[C@@H](CC[C@]4(O)C[C@@H](O[C@@H]5O[C@H](CO)[C@@H](O[C@@H]6OC[C@@H](O)[C@H](O)[C@H]6O)[C@H](O)[C@H]5O)CC[C@]34C=O)[C@@]1(O)CC[C@@H]2C1=CC(=O)OC1 | 2.78
CC(=O)O[C@H](C[C@H](C(C)C)N(C)C(=O)[C@@H](NC(=O)[C@H]1CCCCN1C)C(C)C)c1cccc(C(=O)N[C@@H](Cc2ccccc2)C[C@H](C)C(=O)O)n1 | 41.9
N#CC1(C#N)C(c2ccc(N(CCCl)CCCl)cc2)OC23CCCCC2C1(C#N)C(=N)O3 (configuration not stated) | 91.9
N#CCCNc1ccccc1 | 105
COc1cc(/C=C/[N+](=O)[O-])c([N+](=O)[O-])cc1OC | 6.43
CC(=O)O[C@H]1C(=O)[C@@]2(C)[C@H]([C@H](OC(=O)c3ccccc3)[C@]3(O)C[C@H](OC(=O)[C@H](OC(=O)OC[C@@H]4COC(C)(C)O4)[C@@H](NC(=O)c4ccccc4)c4ccccc4)C(C)=C1C3(C)C)[C@]1(OC(C)=O)CO[C@@H]1C[C@@H]2O | 64.4
C=CC[PH+](c1ccccc1)c1ccccc1.C=CC[PH+](c1ccccc1)c1ccccc1.[Cl][Pt][Cl] | 39.7
COC(=O)[C@@H](NC(=O)c1cn(CCC2CCCCC2)c2ccccc12)C(C)(C)C | 68.7
CC[C@H](C)[C@H](NC(=O)[C@H]1CCCCN1C)C(=O)N(C)[C@H](C[C@@H](OC(C)=O)c1nc(C(=O)NC23CC(C(=O)OC)(C2)C3)cs1)C(C)C | 42.7
O=C(O)c1ccc([S-])cc1.[Au+].c1ccc(CN2[CH-]N(Cc3ccccc3)C(c3ccccc3)=C2c2ccccc2)cc1 | 38.1
C[C@]12CCc3sc(-c4ccccc4O)nc3C1=CC[C@@H]1[C@@H]2CC[C@]2(C)C(=O)CC[C@@H]12 | 108
COc1cc2c(cc1OCCCCn1c(-c3cccs3)nc3ccccc31)N=C[C@@H]1CCCN1C2=O | -21.3
CC(=O)[C@H]1CC[C@H]2[C@@H]3CC[C@H]4C[C@H](N)CC[C@]4(C)[C@H]3CC[C@]12C | 84.1
CCn1cnc2c(Nc3cccc(Cl)c3)nc(N[C@@H]3CCCC[C@@H]3N)nc21 | -7.56
CC1=C(CNO)C2=C(C)C3(CC3)[C@@](C)(O)C(=O)C2=C1 | -8.4

====

# Test system: HS 578T breast
# ASSAY NOTES: NCI-60 one-dose screen, 48 h
# MEASUREMENT CONDITIONS: 10 µM unless noted
Compounds without any hit were thinned out: in the full panel of roughly 83,000, 20% have a hit. The source made the active and inactive calls. How the source made its calls: active means growth percent below 10; inactive means the rest.
Classes used: active, inactive

MOLECULE | CLASS
CC(C)CCC(=O)O[C@H]1CC[C@H]2[C@@H]3CCC4=CC(=O)CC[C@]4(C)[C@H]3CC[C@]12C | inactive
COc1ccc(/C=C\c2cc(OC)c(OC)c(OC)c2)cc1OCC(=O)Nc1nc2ccc(C(F)(F)F)cc2s1 | active
CSc1nc(Cl)cc(N2CC2)n1 | inactive
Cn1cc(-c2csc(-c3cn(CCN4CCOCC4)c4ccccc34)n2)c2cccnc21 | inactive
C[C@@H]1O[C@@H](O[C@H]2C[C@@H](O)[C@]3(CO)C4C(CC[C@]3(O)C2)[C@@]2(O)CC[C@H](C3=CC(=O)OC3)[C@@]2(C)C[C@H]4O)[C@H](O)[C@H](O)[C@H]1O (stereo partly specified) | inactive
Fc1c[c-]c(-c2ccccn2)c(F)c1.[CH3-].[Pt+2].c1ccc([PH+](c2ccccc2)c2ccccn2)cc1 | active
COc1cc2c(cc1OCCCCn1c(-c3cccs3)nc3ccccc31)N=C[C@@H]1CCCN1C2=O | active
CCN(CC)CCOC(=O)C(OC(C)C)(c1ccccc1)c1ccccc1 | inactive
COc1ccc(Nc2ccnc3cc(Cl)ccc23)cc1CN(CCCl)CCCl | active
CCn1nccc1NC(=O)C(=O)c1cn(Cc2ccc(F)cc2)c2cccc(OC)c12 | inactive
CC12CCC3C(C=CC4=C(N)C(=O)CCC43C)C1CCC2=O (stereo unspecified) | inactive
COc1ccc2c(c1)c(-c1nc(-c3c[nH]c4ncccc34)cs1)cn2CCN1CCOCC1 | inactive
OCc1ccc2c(c1)OCO2 | inactive
CNC(=O)Oc1ccc(N(C)C)cc1C(C)C | inactive
CCCCCCCC[N+](C)(CCCCCCCC)CCCCCCCC | active
CC(=O)OCc1cc[c]([Hg][Cl])o1 | inactive
COc1cc([C@@H]2c3cc4c(cc3[C@H](OC(C)=O)[C@H]3COC(=O)[C@H]23)OCO4)cc(OC)c1OC | inactive
O=C1C(N2CC2)=C(N2CC2)C(=O)C(N2CC2)=C1N1CC1 | inactive
COC(=O)C1OC(Oc2ccc(N(CCCl)CCCl)cc2)C(OC(C)=O)C(OC(C)=O)C1OC(C)=O (stereo unspecified) | inactive
Cn1cccc1C1CC(=O)N(CCC[Se]C#N)C1=O (stereo unspecified) | active
CCOc1ccccc1C(=O)OCC(Cl)(Cl)Cl | inactive

====

The following compounds are listed with their measured growth values.
# System: RPMI-8226 leukemia
# ASSAY NOTES: NCI-60 one-dose screen, 48 h (100 = growth as untreated, 0 = no growth, -100 = all killed)
# MEASUREMENT CONDITIONS: 10 µM unless noted
This is part of a sample that, as a whole, favours compounds with a hit. Of some 83,000 tested, about 20% had one in any assay.
MEASURED ENDPOINT: growth (%)

COMPOUND | ASSAY TARGET | MEASURED ENDPOINT | UNIT OF MEASURE | MEASURED NUMBER
Cc1cc(C)cc(Nc2nc3c(s2)CC[C@@]2(C)C3=CC[C@@H]3[C@@H]2CC[C@]2(C)C(=O)CC[C@@H]32)c1 | RPMI-8226 leukemia | growth | % | 4.21
CCc1ccccc1[C@@H]1C[C@]2(C)CCO[C@@H]2OO1 | RPMI-8226 leukemia | growth | % | 100
CN1CCC(O)(c2ccc(F)cc2)C(C(=O)c2ccc(F)cc2)C1 (stereo not given) | RPMI-8226 leukemia | growth | % | -9.61
ClCCN(CCCl)c1ccc(OCc2ccccc2)cc1 | RPMI-8226 leukemia | growth | % | 64.8
COc1ccc(S(=O)(=O)N(Cc2ccc3c(c2)C=CC(C)(C)O3)c2ccccc2)cc1OC | RPMI-8226 leukemia | growth | % | 46.2

====

# Test system: SW-620 colon
# ASSAY NOTES: NCI-60 one-dose screen, 48 h (100 = growth as untreated, 0 = no growth, -100 = all killed)
# MEASUREMENT CONDITIONS: 10 µM unless noted
This is part of a sample that, as a whole, favours compounds with a hit. Of some 83,000 tested, about 20% had one in any assay.

COMPOUND | growth / %
c1cc2c(c3c1CCNC3)OCO2 | 112
CC(=O)O[C@H](C[C@H](C(C)C)N(C)C(=O)[C@@H](NC(=O)[C@H]1CCCCN1C)C(C)(C)C)c1nc(C(=O)N[C@@H](Cc2ccccc2)C[C@H](C)C(=O)O)cs1 | 24.5
COc1ccc2c(c1)c(-c1nc(-c3cn(C)c4ncccc34)cs1)cn2CCN1CCOCC1 | 55.8
Brc1ccc2c(c1)c(-c1nc(-c3c[nH]c4ncccc34)cs1)cn2CCN1CCCCC1 | 58.4
COc1cc([N+](=O)[O-])c2nc(C)ccc2c1[N+](=O)[O-] | 72.7
O=C(NCCN1CC1)C(=O)NCCN1CC1 | 84.7
CCCCCCCCCCCCNC(c1ccccc1)C(O)c1ccccc1 (configuration not stated) | 48.1
CC(=O)O[C@H]1CC[C@@]2(C)C(=CC[C@H]3[C@@H]4C[C@@H](N5CC5)[C@H](C(C)=O)[C@@]4(C)CC[C@@H]32)C1 | 89.6
Fc1ccc2c(c1)c(-c1nc(-c3c[nH]c4ncccc34)cs1)cn2CCN1CCOCC1 | 62.9
CCC1(C(C)C)C(=O)NC(=S)NC1=O | 97
C=CC[PH+](c1ccccc1)c1ccccc1.C=CC[PH+](c1ccccc1)c1ccccc1.[Cl][Pt][Cl] | 2.38
CCCCN(CCCC)P(=O)(Oc1ccccc1)Oc1ccccc1 | 52
Cc1cc(N(CCCl)CCCl)ccc1C=Nc1ccccc1-c1ccccc1 | 67
CC12CC=CCC1CCC1C2CCC2(C)C(c3ccc(=O)oc3)CCC12O (configuration not stated) | -58.9
COc1ccc2c(c1)c(-c1nc(-c3c[nH]c4ncccc34)cs1)cn2CCCCN1CCCCC1 | -71.9
C[C@]12CCc3nc(Nc4ccccc4F)sc3C1=CC[C@@H]1[C@@H]2CC[C@]2(C)C(=O)CC[C@@H]12 | -12.6
CN(C)C(=O)Oc1ccccc1-c1ccccc1 | 109
CC12CCC3C(CCC4=CC(=O)CCC43CF)C1CCC2=O (configuration not stated) | 126
CC(C)(C)C(=O)OCOP(=O)(NCc1ccccc1)C1CCCN(O)C1=O (configuration not stated) | 30.1
CN1CCC(O)(c2ccc(F)cc2)C(C(=O)c2ccc(F)cc2)C1 (configuration not stated) | 99
C/C(=C\c1ccn(-c2ccc(N)cc2C(F)(F)F)n1)[C@@H]1C[C@@H]2O[C@]2(C)CCC[C@H](C)[C@H](O)[C@@H](C)C(=O)C(C)(C)[C@@H](O)CC(=O)O1 | 23.9
CC(=O)OC[C@]1(C)C=C2C(=O)[C@](C)(O)C3(CC3)C(C)=C2[C@H]1OC(=O)N(C)CCN(C)C(=O)OC(C)(C)C | 10.4
NC(=Nc1ccccc1)N[N+](=O)[O-] | 97.8
[Au+].[N-]=C=O.c1ccc(CN2[CH-]N(Cc3ccccc3)C(c3ccccc3)=C2c2ccccc2)cc1 | 89.6
Clc1cccc(Cl)c1Cl | 105
CCC(=O)Nc1ccc(Cl)c(Cl)c1 | 101
Nc1c(F)cc(-c2nc3cc(F)ccc3[se]2)cc1Br | 84.4
CNC(=O)Oc1cccc(C(F)(F)F)c1 | 104
CCOC(=O)[C@@H](C)C[C@H](Cc1ccccc1)NC(=O)c1csc([C@@H](C[C@H](C(C)C)N(C)C(=O)CNC(=O)[C@H]2CCCCN2C)OC(C)=O)n1 | 24.5
COC(=O)[C@H](Cc1c[nH]c2ccccc12)NC(=O)[C@@H](OC)[C@@H]1Cc2cc3cc(OC4CC(OC5CC(O)C(O)C(C)O5)C(O)C(C)O4)c(C)c(O)c3c(O)c2C(=O)[C@H]1OC1CC(OC2CC(OC3CC(C)(O)C(O)C(C)O3)C(O)C(C)O2)C(O)C(C)O1 (some centres not stated) | 6.98
COc1cc([C@@H]2c3cc4c(cc3[C@H](OC(C)=O)[C@H]3COC(=O)[C@@H]23)OCO4)cc(OC)c1OC | 26.8
Fc1cccc(NCOOC2(OOCNc3cccc(F)c3)CCCCC2)c1 | 104
CC(=O)Oc1ccccc1C(=O)NCCC[Se]C#N | 72.9
C1CCC([PH+](C2CCCCC2)C2CCCCC2[PH+](C2CCCCC2)C2CCCCC2)CC1.[Au].[CH-]1CCCCC1CC1CCCC[N-]1 (configuration not stated) | -24
Oc1ccc2c3c1OC1[C@@H](O)CC[C@@]4(O)[C@@H](C2)N(CC2CCC2)CC[C@]314 (some centres not stated) | 104
COc1ccc(/C=C\c2cc(OC)c(OC)c(OC)c2)c(NS(=O)(=O)c2ccc(F)cc2)c1O | 21.1
CCCCCCCCCCCCCC[P+](CCCCCC)(CCCCCC)CCCCCC | -86.3
